- Tested on: D283 Med
- protocol-details: cells
- Assay type: functional, cell-based, Homo sapiens
- details: Homo sapiens, D283 Med
- Description: SANGER: Inhibition of human D-283MED cell growth in a cell viability assay.
pIC50: −log10 of the molar value.
Overview of recorded pIC50 for various compounds

sample-smiles	assay-system	recorded-measurement
COc1cc2c(Nc3ccc(NC(=O)c4ccccc4)cc3)ncnc2cc1OCCCN1CCOCC1	D283 Med	< 5.40
OCCCNc1cc(-c2ccnc(Nc3cccc(Cl)c3)n2)ccn1	D283 Med	< 6.59
C#Cc1cccc(Nc2ncnc3cc(OCCOC)c(OCCOC)cc23)c1	D283 Med	< 5.70
COc1cc(N2CCN(C)CC2)ccc1Nc1ncc2c(n1)N(C)c1ccccc1C(=O)N2C	D283 Med	< 5.10
CC(=O)O[C@H]1C(=O)[C@@]2(C)[C@H]([C@H](OC(=O)c3ccccc3)[C@]3(O)C[C@H](OC(=O)[C@H](O)[C@@H](NC(=O)c4ccccc4)c4ccccc4)C(C)=C1C3(C)C)[C@]1(OC(C)=O)CO[C@@H]1C[C@@H]2O	D283 Med	< 6.99

Q: Supply recorded pIC50 for CO[C@H]1C[C@@H]2CC[C@@H](C)[C@@](O)(O2)C(=O)C(=O)N2CCCC[C@H]2C(=O)O[C@H]([C@H](C)C[C@@H]2CC[C@@H](OC(=O)C(C)(CO)CO)[C@H](OC)C2)CC(=O)[C@H](C)/C=C(\C)[C@@H](O)[C@@H](OC)C(=O)[C@H](C)C[C@H](C)/C=C/C=C/C=C/1C here.
Result: < 6.70

Q: For the compound CC(C)c1ccccc1Cc1cc(C(=O)Nc2ccc(S(=O)(=O)c3ccccc3C(C)(C)C)cc2)c(O)c(O)c1O , report pIC50.
Result: 6.55

* * *

This section presents molecules with their documented pIC50 values.
- System: HCC2218;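 further: cell viability assay read-out, with IC50 given as the concentration that inhibits growth of the cell line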
- protocol-details: cells
- Type: functional, cell-based, Homo sapiens
- details: Homo sapiens, HCC2218
- Description: SANGER: Inhibition of human HCC2218 cell growth in a cell viability assay.
pIC50: −log10 of the molar value.

Please review the entries below; each comes with its answer.
> print(dat)
                              sample.smiles  recorded.measurement
1  CC1(C)CNc2cc(NC(=O)c3cccnc3NCc3ccncc3)ccc21                < 5.70
2  N#Cc1c(O)c2c(-c3ccc(-c4ccccc4O)cc3)csc2[nH]c1=O                  6.47
3  O=C(O)c1ccc(-c2c[nH]c3ncc(-c4ccccc4)cc23)cc1C1CCCC1                < 4.80

Consider the additional molecule presented here.
Q: For Nc1ccn([C@@H]2O[C@H](CO)[C@@H](O)C2(F)F)c(=O)n1 , write its pIC50.
Result: < 5.99

* * *

- System: EKVX;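 further: growth inhibition of human EKVX cells, read out with a cell viability assay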
- protocol-details: cells
- Type: functional, cell-based, Homo sapiens
- details: Homo sapiens, EKVX
- Description: SANGER: Inhibition of human EKVX cell growth in a cell viability assay.
pIC50: −log10 of the molar value.
Let's look at some molecules and their measured pIC50.

sample-smiles	pIC50
Cc1ccc(-c2c(C(=O)CCl)n(CCCO)c3ncnc(N)c23)cc1	< 5.40

Q: Given CC[C@H](CO)Nc1nc(NCc2ccccc2)c2ncn(C(C)C)c2n1 , respond with its pIC50.
Result: < 4.80

Q: Note pIC50 for the molecule shown: Cc1cc([N+](=O)[O-])ccc1NS(=O)(=O)c1cc(Cl)ccc1Cl
Result: 5.12

Q: Give recorded pIC50. COc1cccc2c1C(=O)c1c(O)c3c(c(O)c1C2=O)C[C@@](O)(C(=O)CO)C[C@@H]3O[C@H]1C[C@H](N)[C@H](O)[C@H](C)O1
Result: 6.06

Q: Answer with the recorded pIC50 for the molecule listed here: CN(C)C(=N)NC(=N)N
Result: < 1.70

Q: Kindly indicate its recorded pIC50. Item: Nc1ccn([C@@H]2O[C@H](CO)[C@@H](O)C2(F)F)c(=O)n1
Result: < 5.99

Q: Write down pIC50 measured for item CS(=O)(=O)c1ccc(C(=O)Nc2ccc(Cl)c(-c3ccccn3)c2)c(Cl)c1
Result: < 5.00

Q: Specify measured pIC50 for CC(=O)O[C@H]1C(=O)[C@@]2(C)[C@H]([C@H](OC(=O)c3ccccc3)[C@]3(O)C[C@H](OC(=O)[C@H](O)[C@@H](NC(=O)c4ccccc4)c4ccccc4)C(C)=C1C3(C)C)[C@]1(OC(C)=O)CO[C@@H]1C[C@@H]2O .
Result: < 6.99

Q: Give the measured pIC50 for Cc1cn(-c2cc(NC(=O)c3ccc(C)c(Nc4nccc(-c5cccnc5)n4)c3)cc(C(F)(F)F)c2)cn1
Result: < 5.70
